Where do these numbers come from? They come from paper PMC9401487.

Assay: Clinical plasma pharmacokinetics of ceralasertib
Format: in vivo
Settings: human, oral, terminal plasma half-life, abstract summary
reportedMetric: half-life

Entry "C[C@@H]1COCCN1c1cc(C2([S@](C)(=N)=O)CC2)nc(-c2cc[nH]c3nccc2-3)n1" : reported half-life = ?
8 to 11 h

----------
Assay: Clinical plasma pharmacokinetics of ceralasertib
Assay type: in vivo
Conditions: human, oral, median tmax, in combination with carboplatin
reportedMetric: Tmax

Entry "C[C@@H]1COCCN1c1cc(C2([S@](C)(=N)=O)CC2)nc(-c2cc[nH]c3nccc2-3)n1" : reported Tmax = ?
1.05 to 1.07 h

----------
Assay: Clinical plasma pharmacokinetics of ceralasertib
Format: in vivo
Conditions: human, oral, tmax, abstract summary
reportedMetric: Tmax

Entry "C[C@@H]1COCCN1c1cc(C2([S@](C)(=N)=O)CC2)nc(-c2cc[nH]c3nccc2-3)n1" : reported Tmax = ?
~1 h

----------
Assay: Clinical plasma pharmacokinetics of ceralasertib
Type: in vivo
Settings: human, oral, mean half-life, administered alone
reportedMetric: half-life

Entry "C[C@@H]1COCCN1c1cc(C2([S@](C)(=N)=O)CC2)nc(-c2cc[nH]c3nccc2-3)n1" : reported half-life = ?
8.14 to 10.6 h

----------
Assay: Clinical plasma pharmacokinetics of ceralasertib
Assay type: in vivo
Conditions: human, oral, median tmax, single dose, alone, across dose groups
reportedMetric: Tmax

Entry "C[C@@H]1COCCN1c1cc(C2([S@](C)(=N)=O)CC2)nc(-c2cc[nH]c3nccc2-3)n1" : reported Tmax = ?
1 to 1.03 h
